These measurements were taken from ChEMBL document CHEMBL1201862.

Test system: SK-OV-3
Assay: NCI tumour cell line growth inhibition, 48 h
Active and inactive are the calls of the source. Cut-off read from the data, not from the text of the source: active = GI50 up to about 1.1 µM and inactive = higher.
Form entry, call: pick from active, inactive

- COMPOUND: "CN[C@@H](Cc1cccc2ccccc12)C(=O)N[C@@H](CC(C)C)B(O)O"
  CAT: "active"
- COMPOUND: "Cc1ccc(S(=O)(=O)N/N=C2\\CCC3(O)CC2(C)CCC2C3CC2(C)C)cc1 (stereo not given)"
  CAT: "inactive"
- COMPOUND: "COc1cc(C2SCC(=O)N2c2ccc(-c3ccc(-n4c(-c5ccccc5)nc5ccccc5c4=O)cc3)cc2)cc(OC)c1OC (stereo not given)"
  CAT: "inactive"
- COMPOUND: "C=CC[C@]1(/C=N/O)CN(S(=O)(=O)CC[Si](C)(C)C)C[C@H]2CC=CC[C@H]21"
  CAT: "inactive"
- COMPOUND: "Cc1ccc(S(=O)(=O)N2CCNCCN(S(=O)(=O)c3ccc(C)cc3)CCNCC2)cc1"
  CAT: "inactive"

Here's the next entry for you.
[Q] Which outcome did this test record for the compound COC(=O)CCC(C)C1CCC2C3CCC4CC5CCC4(C)C3(O5)C(Br)C(Br)C12C (stereo not given) ?
[A] inactive

----------
Can you tell me GI50 for the items I'm about to list?
System: KM12
Assay: NCI tumour cell line growth inhibition, 48 h
Activity calls are given as the source filed them. Cut-off read from the data, not from the text of the source: active = GI50 up to about 1.1 µM and inactive = higher.

Solved entries:
- COMPOUND: "CC1=C(C(=O)Nc2ccccc2C)C(c2ccc(N(C)C)cc2)C(C(=O)Nc2ccccc2C)=C(C)N1"
  OBSERVABLE: "GI50"
  REPORTED_RESULT: "48.4 µM (inactive)"
- COMPOUND: "C=C(C)[C@H]1[C@@H]2OC(=O)[C@H]1[C@]1(O)C[C@H]3OC34C(=O)O[C@H]2[C@@]41C.CC(C)(O)[C@H]1[C@@H]2OC(=O)[C@H]1[C@]1(O)C[C@H]3OC34C(=O)O[C@H]2[C@@]41C (some centres undefined)"
  OBSERVABLE: "GI50"
  REPORTED_RESULT: "> 100 µM (inactive)"
- COMPOUND: "O=C(Nc1ccccc1)c1cc2ccccc2c(/N=N\\c2cccc([N+](=O)[O-])c2)c1O"
  OBSERVABLE: "GI50"
  REPORTED_RESULT: "> 100 µM (inactive)"
- COMPOUND: "NC(CCCCCCCCCCP(=O)(O)O)C(=O)O (centres undefined)"
  OBSERVABLE: "GI50"
  REPORTED_RESULT: "> 100 µM (inactive)"
- COMPOUND: "COC(=O)/C=C\\n1c(C)cc(=O)[nH]c1=O"
  OBSERVABLE: "GI50"
  REPORTED_RESULT: "> 100 µM (inactive)"

# map each compound to its GI50
1. O=c1cc(NNc2ccc(F)cc2)[nH]c(=O)[nH]1
2. Cc1cc(Cl)ccc1NC(=O)CC/C(CC(=O)C(C)C)=N\NC(=O)C[n+]1ccccc1
3. COC(=O)c1c(C)oc2ccc(OC(C)=O)cc12
4. CN(C)CCNC(=O)c1cccc2ccc(-c3ccc(O)cc3)nc12
5. O=C(CCN1CCC(CCO)CC1)Nc1ccc2c(c1)C(=O)c1ccc(NC(=O)CCN3CCC(CCO)CC3)cc1C2=O
6. CC(C)CCCC(C)C1CCC2C3CC([N+](=O)[O-])=C4CC(O)CCC4(C)C3CCC12C (centres undefined)
7. Cc1ccc2nc3ccccc3c(C3C4C(=O)N(c5ccc(Br)cc5Cl)C(=O)C4ON3C(C(N)=O)c3ccccc3)c2c1 (centres undefined)

[A]
1: 11.7 µM (inactive); 2: > 100 µM (inactive); 3: > 100 µM (inactive); 4: 4.54 µM (inactive); 5: 2.69 µM (inactive); 6: 16.4 µM (inactive); 7: > 25 µM (inactive)

# map each compound to its GI50
1. Cc1cc(O)c(C(C)C)cc1/N=C/c1ccccc1O
2. CCCCC1Cc2cc(O)ccc2-c2n1c1cc(O)ccc1[n+]2C.CCCCC1Cc2cc(O)ccc2-c2n1c1ccc(O)cc1[n+]2C (centres undefined)
3. Nc1nc(N)c(-c2ccccc2)c(C(=O)Nc2ccccc2)n1
4. COc1ccccc1NC(=O)C1=C(C)NC(C)=C(C(=O)Nc2ccccc2OC)C1c1ccccc1[N+](=O)[O-]

[A]
["3.76 µM (inactive)", "28.2 µM (inactive)", "> 100 µM (inactive)", "16.8 µM (inactive)"]

# map each compound to its GI50
1. CC(=O)Nc1ccc(/C=C/C(=O)c2sc(C(N)=S)nc2C)cc1
2. CCOC(=O)c1cc(-c2ccc(OC)c(OC)c2)c[nH]1

[A]
> 100 µM (inactive)
> 10 µM (inactive)

Measured GI50 of CC(=O)OC1CC2(O)C(CCC3(C)C(c4ccc(=O)oc4)CCC32O)C2(C)C1=CC(O)C1OC12 (centres undefined) : 0.067 µM (active)

----------
Tested on: XF498
Test: NCI tumour cell line growth inhibition, 48 h
Calls of active or inactive are those of the source. No stated cut-off is given here; in the data, active = GI50 up to about 1.1 µM and inactive = higher.
Form entry, call: pick from true (1) (active), false (0) (inactive)

Worked examples follow.
- COMPOUND: "[O-][S+]1CSCS1 (centres undefined)"
  CAT: "false (0)"
- COMPOUND: "OCC(O)C(OC1OC(CO)C(O)C(O)C1O)c1nn(-c2ccccc2)c2nc3cc(Cl)ccc3nc12 (centres undefined)"
  CAT: "false (0)"

[Q] Which outcome did this test record for the compound COc1cccc(C2C(C(=O)O)=C(CO)Oc3cc4c(cc32)OCO4)c1OC (centres undefined) ?
[A] false (0)

[Q] Which outcome did this test record for the compound OCCCNc1ccnc2cc(Cl)ccc12 ?
[A] false (0)

[Q] Which outcome did this test record for the compound COc1cccc2c1C(=O)c1c(O)c3c(c(O)c1C2=O)C[C@@](O)(C(=O)CO)C[C@@H]3OC1CC(N2CCOCC2)C(O)C(C)O1 (some centres undefined) ?
[A] true (1)

----------
Tested on: OVCAR-8
Assay: NCI tumour cell line growth inhibition, 48 h
The source made the active and inactive calls. Cut-off read from the data, not from the text of the source: active = GI50 up to about 1.1 µM and inactive = higher.
Form entry, call: pick from active, inactive

- MOLECULE: "Nc1ccc(Oc2ccc(C34CC5CC6C3CC3CC4C(C5)C6(c4ccc(Oc5ccc(N)cc5)cc4)C3)cc2)cc1"
  TARGET_UNDER_TEST: "OVCAR-8"
  CAT: "inactive"
- MOLECULE: "CCc1nc(N)nc(N)c1-c1ccc([N+](=O)[O-])c(NCc2ccccc2)c1"
  TARGET_UNDER_TEST: "OVCAR-8"
  CAT: "inactive"

[Q] Which outcome did this test record for the molecule COc1cc(/C=C/C(=O)c2ccc(NS(=O)(=O)c3cc([N+](=O)[O-])ccc3C)cc2)cc(OC)c1OC ?
[A] inactive

[Q] Which outcome did this test record for the molecule O=C(c1ccc(Cl)cc1)c1ccc(OCCCOc2ccc(C(=O)c3ccc(Cl)cc3)cc2)cc1 ?
[A] inactive

[Q] Which outcome did this test record for the molecule COC(=O)c1ccc(C)cc1CC1Cc2ccc(C)cc2C1=O (stereo unspecified) ?
[A] inactive

[Q] Which outcome did this test record for the molecule O=C1C=Cc2c1csc2Br ?
[A] inactive

[Q] Which outcome did this test record for the molecule NCCCOCC(=O)O ?
[A] inactive

[Q] Which outcome did this test record for the molecule NNC(=O)CCc1ccc2ccc3ccccc3c2c1 ?
[A] inactive

----------
Tested on: 786-0
Experiment: NCI tumour cell line growth inhibition, 48 h
The source made the active and inactive calls. Rule as the data show it: active = GI50 up to about 1.1 µM and inactive = higher.
Form entry, call: pick from active, inactive

Worked examples follow.
- COMPOUND: "C[N+](C)=C/C=C(\\Cl)c1ccc2ccccc2c1"
  CAT: "inactive"
- COMPOUND: "CCCCCCCCCCCCCCCCCCNC(=O)C(N)Cc1ccc(OCc2ccccc2)cn1 (stereo unspecified)"
  CAT: "inactive"
- COMPOUND: "CC(C)N1CC2CN(Cc3ccccc3)CC(C1)C2=O"
  CAT: "inactive"
- COMPOUND: "COc1ccc(/C=C\\c2cc(OC)c(OC)c(OC)c2)cc1OC(=O)C(N)CCC(=O)O (stereo unspecified)"
  CAT: "active"
- COMPOUND: "CC1CC(C)C(=O)C(C(=O)CC2CC(=O)NC2=O)C1 (stereo unspecified)"
  CAT: "inactive"

[Q] Which outcome did this test record for the compound CCOC(=O)c1ccc(NC(=O)Oc2ccc3c(C)cc(=O)oc3c2)cc1 ?
[A] inactive

----------
System: OVCAR-3
Assay: NCI tumour cell line growth inhibition, 48 h
Active and inactive are the calls of the source. Rule as the data show it: active = GI50 up to about 1.1 µM and inactive = higher.
OBSERVABLE: GI50

Solved entries:
- COMPOUND: "COc1cccc(/C=C2\\N=C(Cl)OC2=O)c1O"
  TARGET_UNDER_TEST: "OVCAR-3"
  OBSERVABLE: "GI50"
  REPORTED_RESULT: "> 100 µM (inactive)"
- COMPOUND: "Nc1nc(N)c(-c2ccccc2)c(C(=O)Nc2ccccc2)n1"
  TARGET_UNDER_TEST: "OVCAR-3"
  OBSERVABLE: "GI50"
  REPORTED_RESULT: "> 100 µM (inactive)"
- COMPOUND: "CCn1cnc2c(=S)nc(N)[nH]c21"
  TARGET_UNDER_TEST: "OVCAR-3"
  OBSERVABLE: "GI50"
  REPORTED_RESULT: "> 100 µM (inactive)"
- COMPOUND: "COC(=O)[C@@H]1C=C[C@H](NC(C)=O)C1"
  TARGET_UNDER_TEST: "OVCAR-3"
  OBSERVABLE: "GI50"
  REPORTED_RESULT: "> 100 µM (inactive)"
- COMPOUND: "Cc1ccc(S(=O)(=O)N/N=C2\\CCC3(O)CC2(C)CCC2C3CC2(C)C)cc1 (stereo unspecified)"
  TARGET_UNDER_TEST: "OVCAR-3"
  OBSERVABLE: "GI50"
  REPORTED_RESULT: "37.8 µM (inactive)"
- COMPOUND: "Cc1cc(C)n2c(nc3ccccc32)c1C#N"
  TARGET_UNDER_TEST: "OVCAR-3"
  OBSERVABLE: "GI50"
  REPORTED_RESULT: "> 100 µM (inactive)"

# map each compound to its GI50
1. CC1=NN2C=Nc3c(c(-c4ccc(Cl)cc4)cn3-c3ccc(C)cc3)C2N1 (stereo unspecified)
2. O=C(c1ccccc1)C(C(=O)c1ccccc1)C1(O)C(=O)c2ccccc2C1=O

[A]
1: > 100 µM (inactive); 2: 26.6 µM (inactive)

# map each compound to its GI50
1. COc1nc2cccc(C(O)c3ccccc3)c2nc1-c1ccccc1 (stereo unspecified)
2. Nc1ncnc2oc(C3OC(COC(=O)c4ccccc4)C(OC(=O)c4ccccc4)C3OC(=O)c3ccccc3)nc12 (stereo unspecified)
3. [O-][S+]1CSCS1 (stereo unspecified)
4. COc1cc2c(cc1OC)[C@H]1C(=O)c3cc4c(cc3[C@H]1N(C)C2=O)OCO4
5. CC1CC(C)C(=O)C(C(=O)CC2CC(=O)NC2=O)C1 (stereo unspecified)
6. Cc1cc(S(=O)(=O)Nc2nc(Nc3ccccc3)n[nH]2)c(SSc2cc(Cl)c(C)cc2S(=O)(=O)Nc2nc(Nc3ccccc3)n[nH]2)cc1Cl
7. Cc1ccc2nc3ccccc3c(C3C4C(=O)N(c5ccc(Br)cc5Cl)C(=O)C4ON3C(C(N)=O)c3ccccc3)c2c1 (stereo unspecified)
8. CCOC(=O)c1cc(-c2ccc(OC)c(OC)c2)c[nH]1

[A]
1: 3.91 µM (inactive); 2: > 100 µM (inactive); 3: > 100 µM (inactive); 4: 19.2 µM (inactive); 5: > 100 µM (inactive); 6: > 100 µM (inactive); 7: > 25 µM (inactive); 8: > 10 µM (inactive)

# map each compound to its GI50
1. CCN1CCC(O)(c2ccc(C)cc2)C(C(=O)c2ccc(C)cc2)C1 (stereo unspecified)
2. CC(=O)Nc1nc2c(=O)c3ccccc3sc2s1

[A]
1. 21.9 µM (inactive)
2. > 100 µM (inactive)
